- Test system: KRAS-mutant PDC complex spheroid viability;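 note: viability read after seven days of compound exposure; 100% = DMSO vehicle-treated spheroids so lower means less viable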
- experimentNotes: Anticancer human tumor 186277-243-T-J2-PDC patient-derived colon adenocarcinoma cell line growth inhibition [KRAS2]
- runParameters: second compound 1 µM; first compound 0.000316 µM; stronger effect = lower value
# viability, T/C per entry
experimentalReadout: viability, T/C (%)

compound	valueMeasured
CN(C)C/C=C/C(=O)Nc1cc2c(Nc3ccc(F)c(Cl)c3)ncnc2cc1O[C@H]1CCOC1 + C=CC(=O)N1CCN(c2nc(=O)n(-c3c(C)ccnc3C(C)C)c3nc(-c4c(O)cccc4F)c(F)cc23)C(C)C1	91.2
CN(C)C/C=C/C(=O)Nc1cc2c(Nc3ccc(F)c(Cl)c3)ncnc2cc1O[C@H]1CCOC1 + C=CC(=O)N1CCN(c2nc(OCC3CCCN3C)nc3c2CCN(c2cccc4cccc(C)c24)C3)CC1CC#N	94.6
CC(=O)Nc1cccc(-n2c(=O)n(C3CC3)c(=O)c3c(Nc4ccc(I)cc4F)n(C)c(=O)c(C)c32)c1 + CC1OCC2(CCN(c3cnc(Sc4ccnc(N)c4Cl)c(N)n3)CC2)C1N	10.9
